assay: self-splicing fitness, log relative to wild type (ln ratio); higher = more splicing; Tetrahymena group I intron in knt gene, E. coli kanamycin selection, DiMSum; sequences stand for … in CUCUCU…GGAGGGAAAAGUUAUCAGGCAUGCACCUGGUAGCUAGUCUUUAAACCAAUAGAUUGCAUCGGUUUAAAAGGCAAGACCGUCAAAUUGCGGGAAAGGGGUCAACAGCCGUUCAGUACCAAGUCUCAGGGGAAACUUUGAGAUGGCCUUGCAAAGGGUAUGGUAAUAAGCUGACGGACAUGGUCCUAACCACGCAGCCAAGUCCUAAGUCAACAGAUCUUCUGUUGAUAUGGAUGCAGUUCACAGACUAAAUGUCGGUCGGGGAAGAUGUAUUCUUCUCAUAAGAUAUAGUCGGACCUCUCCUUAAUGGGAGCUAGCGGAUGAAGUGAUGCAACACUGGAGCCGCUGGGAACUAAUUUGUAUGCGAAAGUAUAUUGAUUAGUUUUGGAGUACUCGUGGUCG; conditions: 37 °C;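 also: selection with 25 µg/mL kanamycin versus none on LB agar overnight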
Use -0.5 as the dividing line for self-splicing fitness (ln), with the line itself on the label 1 side and lower values as label 0.

# count of solved cases: 6
>>> group("CUAUAGCAAUAUUACGCUAA")
"label 0"
>>> group("UCACAGCAAUAUUACGUCAA")
"label 0"
>>> group("AGAGAGCAAUAUUACGCAUU")
"label 0"
>>> group("GGACAGCAAUAUUACGAUUU")
"label 1"
>>> group("GAUUAGCAAUAUUACGCCGG")
"label 0"
>>> group("GGUGAGCAAUAUUACGCUCU")
"label 0"

Now consider a different sequence.
Query :: Does CUGUAGCAAUAUUACGCGUA have a reported self-splicing fitness (ln) of at least -0.5?
Result :: label 0

----------
test: self-splicing fitness, log relative to wild type (ln ratio); higher = more splicing; Tetrahymena group I intron in knt gene, E. coli kanamycin selection, DiMSum; sequences stand for … in CUCUCU…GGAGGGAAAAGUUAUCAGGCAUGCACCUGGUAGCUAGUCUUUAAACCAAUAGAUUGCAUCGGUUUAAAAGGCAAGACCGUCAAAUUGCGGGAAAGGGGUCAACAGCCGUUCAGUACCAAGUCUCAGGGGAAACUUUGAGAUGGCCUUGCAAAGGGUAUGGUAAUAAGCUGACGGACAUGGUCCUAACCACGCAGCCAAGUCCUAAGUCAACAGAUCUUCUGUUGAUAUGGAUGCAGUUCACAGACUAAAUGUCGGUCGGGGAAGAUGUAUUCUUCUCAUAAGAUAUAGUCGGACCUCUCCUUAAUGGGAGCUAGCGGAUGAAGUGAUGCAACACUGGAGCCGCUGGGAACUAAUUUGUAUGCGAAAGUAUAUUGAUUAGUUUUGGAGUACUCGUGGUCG; details: 37 °C
Examples of sequences with documented self-splicing fitness (ln) follow.
Reply with the value as a number alone.

See these solved cases before continuing.
>>> readout_number("GUGUAGCAAUAUUACGCGCU")
-1.27
>>> readout_number("GUAGAGCAAUAUUACGUGAA")
-1.87
>>> readout_number("UCGAAGCAAUAUUACGCUCG")
-1.39
>>> readout_number("ACGUAGCAAUAUUACGGUCC")
-0.357
>>> readout_number("AAUGAGCAAUAUUACGCAGA")
-1.56
>>> readout_number("GGACAGCAAUAUUACGGGUC")
-2.56

Next up:
Recorded self-splicing fitness (ln) (sequence AGGAAGCAAUAUUACGAAGG ): -2.8
